- assayInfo: physchem
- Type: physicochemical
- conditionSet: pH 4.5, Solubility
- Description: The samples were shaken on a vortex mixer for 5 min and on an orbital shaker at 100 rpm for 3 h. The samples were collected and centrifuged at 12,000 rpm for 15 min. The supernatants of the samples were collected and analyzed using HPLC as described in Section 2.6 below. CSP7 was chemically analyzed with a Thermo Scientific™ Dionex™ UltiMate™ 3000 HPLC System (Thermo Scientific, Sunnyvale, CA, USA) with a wavelength of 220 nm. […]
Where no end group is shown, it is not given here.
reportedEndpoint: solubility at 3 h

If you can, please state the reported solubility at 3 h value of FTTFTVT [CSP7 acetate] .
160 µg/mL

###

- assayInfo: physchem
- Format: physicochemical
- conditionSet: pH 3.5, Solubility
Where no end group is shown, it is not given here.
reportedEndpoint: solubility at 3 h (µg/mL)
Your answer should be a plain number; it is taken to be in µg/mL.

If you can, please state the reported solubility at 3 h value of FTTFTVT [CSP7 acetate] .
241

###

- assayInfo: physchem
- Type: physicochemical
- conditionSet: pH 7.5, Solubility
Where no end group is shown, it is not given here.
reportedEndpoint: solubility at 3 h

If you can, please state the reported solubility at 3 h value of FTTFTVT [CSP7 acetate] .
347 µg/mL
